- PROTOCOL TEXT: log P by HPLC on a reversed-phase column (C 18), EEC Directive 79/831 Annex V.A8
- Type: physicochemical
- TEST CONDITIONS: HPLC, reversed-phase column (C 18), 40° C.; 0.1% aqueous formic acid and acetonitrile, linear gradient 10% to 90% acetonitrile
READOUT: logP
Enter a number only.

Qu. Note logP for the compound shown: `Cc1ccc(C2(C)CC2)c(CN(C(=O)c2cc(C)oc2C(F)F)C2CC2)c1`
Ans. 4.62

Qu. Using the record for `Cc1ccc(C2(C(C)C)CC2)c(CN(C(=S)c2cn(C)nc2C(F)F)C2CC2)c1` , state its measured logP.
Ans. 4.98

Qu. Quickly give me recorded logP for `Cn1cc(C(=O)N(Cc2ccc(Cl)cc2C2(C)CC2)C2CC2)c(C(F)F)n1`
Ans. 3.96

Qu. Return reported logP. Input compound: `Cc1cc(C(=O)N(Cc2cc(Cl)ccc2C2(C(F)(F)F)CC2)C2CC2)c(C)o1`
Ans. 4.82

Qu. State its logP: `CCCC1(c2ccc(C)cc2CN(C(=S)c2cn(C)nc2C(F)F)C2CC2)CC1`
Ans. 5.08
